Test system: Klebsiella pneumoniae
test: Antimicrobial activity against tetracycline-resistant Klebsiella pneumoniae isolate 153 harboring tetA gene by CLSI dilution method
Assay type: functional
Measured MIC, listed per entry.

Answered cases to consult:
CN(C)[C@@H]1C(O)=C(C(N)=O)C(=O)[C@@]2(O)C(O)=C3C(=O)c4c(cc5ccc(-c6cccnc6)cc5c4O)C[C@H]3C[C@@H]12: > 32 µg/mL
CN(C)[C@@H]1C(O)=C(C(N)=O)C(=O)[C@@]2(O)C(O)=C3C(=O)c4c(c(F)c5ccc(CNC(C)(C)C)cc5c4O)C[C@H]3C[C@@H]12: 4 µg/mL
COc1c2c(c(O)c3cc(CN4CC(F)C4)ccc13)C(=O)C1=C(O)[C@]3(O)C(=O)C(C(N)=O)=C(O)[C@@H](N(C)C)[C@@H]3C[C@@H]1C2: 8 µg/mL
CN(C)[C@@H]1C(O)=C(C(N)=O)C(=O)[C@@]2(O)C(O)=C3C(=O)c4c(cc5ccc(CN6CCC6)cc5c4O)C[C@H]3C[C@@H]12: 8 µg/mL
CN(C)[C@@H]1C(O)=C(C(N)=O)C(=O)[C@@]2(O)C(O)=C3C(=O)c4c(c(F)c5ccc(CN6CC(F)C6)cc5c4O)C[C@H]3C[C@@H]12: 8 µg/mL

Okay, next one:
Input: Find the measured MIC of COc1c2c(c(O)c3cc(CN4CCCC4)ccc13)C(=O)C1=C(O)[C@]3(O)C(=O)C(C(N)=O)=C(O)[C@@H](N(C)C)[C@@H]3C[C@@H]1C2 with Klebsiella pneumoniae as test system.
Output: 8 µg/mL
